Measured values drawn from ChEMBL document CHEMBL2311273 for this set.

Target: Multidrug and toxin extrusion protein 2 (Homo sapiens)
Sequence (Q86VL8 whole entry): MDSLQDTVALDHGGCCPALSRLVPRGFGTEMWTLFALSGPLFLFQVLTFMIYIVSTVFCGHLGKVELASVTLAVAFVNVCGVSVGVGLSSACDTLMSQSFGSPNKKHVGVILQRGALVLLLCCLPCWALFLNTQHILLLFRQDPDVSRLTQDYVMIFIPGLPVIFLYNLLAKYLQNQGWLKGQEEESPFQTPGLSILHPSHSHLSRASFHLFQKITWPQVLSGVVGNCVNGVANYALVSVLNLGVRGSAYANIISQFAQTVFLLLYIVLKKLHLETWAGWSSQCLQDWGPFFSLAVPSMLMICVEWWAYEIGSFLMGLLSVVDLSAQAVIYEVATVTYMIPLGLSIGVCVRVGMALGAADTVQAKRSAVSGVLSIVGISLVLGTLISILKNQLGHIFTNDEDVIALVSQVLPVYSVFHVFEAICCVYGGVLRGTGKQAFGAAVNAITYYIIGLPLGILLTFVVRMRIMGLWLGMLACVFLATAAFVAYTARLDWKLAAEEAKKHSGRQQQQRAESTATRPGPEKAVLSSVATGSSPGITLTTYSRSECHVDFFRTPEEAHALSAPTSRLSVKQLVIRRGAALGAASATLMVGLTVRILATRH
Assay: Inhibition of human MATE2K-mediated ASP+ uptake expressed in HEK293 cells after 1.5 mins by fluorescence assay
Format: cell-based
Reported IC50 is given for each of the following molecules.

query-smiles: [H]/N=C(/N)c1ccc(NCc2nc3cc(C(=O)N(CCC(=O)O)c4ccccn4)ccc3n2C)cc1
test-system: Multidrug and toxin extrusion protein 2 (Homo sapiens)
IC50 [µM]: 25.3
--
query-smiles: [H]/N=C(\N/C(=N/[H])NCCCCCCNC(=N)NC(=N)Nc1ccc(Cl)cc1)Nc1ccc(Cl)cc1
test-system: Multidrug and toxin extrusion protein 2 (Homo sapiens)
IC50 [µM]: 0.5
--
query-smiles: COc1cc2nc(N3CCN(C(=O)c4ccco4)CC3)nc(N)c2cc1OC
test-system: Multidrug and toxin extrusion protein 2 (Homo sapiens)
IC50 [µM]: 38.4
